Test: Reaction of electrophiles with CoASH, adduct formation monitored by LC-MS
Type: physicochemical
Settings: 25 °C, pH 7.5 phosphate buffer, 2 mM each of CoASH and electrophile, 1 mM TCEP, 5% MeOH; same with and without 1.2 μM AANAT
property label: kforward, reaction with CoASH (M⁻¹ min⁻¹)
Your answer is read as M⁻¹ min⁻¹, so omit the unit and give the number.

Study these solved cases before continuing.
C=CS(=O)(=O)NCc1c[nH]c2ccccc12 ... 0.261
C=CC(=O)NCc1c[nH]c2ccccc12 ... 0.0156
C=CC(=O)NCCc1c[nH]c2ccccc12 ... 0.00873

Moving on to the next molecule.
Per the record, C=CS(=O)(=O)NCCc1c[nH]c2ccccc12 has kforward, reaction with CoASH of 0.110
